Readings of solubility for the listed compounds
# assay.remarks: solvent solubility screen
# details: dimethylsulfoxide, 40 °C, organic solvent or mixture
Counter-ions that a name gives are not always drawn.

{"columns": ["compound", "measured.value"],
 "data": [
  ["CN1CCC2(CC1)NCC(=O)N2Cc1ccccc1.Cl [HCl mono-salt]", "~105 mg/mL"]
]}

Now for the compound whose solubility we want.
Record summary for CN1CCC2(CC1)NCC(=O)N2Cc1ccccc1 [HCl Di-Salt Hydrate, Form 1, dihydrochloride monohydrate] : reported solubility = > 200 mg/mL

====

# assay.remarks: solvent solubility screen
# details: 2-MeTHF, 40 °C, organic solvent or mixture
Where a name gives a salt, the structure may show the parent alone.
measured.parameter: solubility

{"columns": ["compound", "solubility"],
 "data": [
  ["CN1CCC2(CC1)NCC(=O)N2Cc1ccccc1 [HCl Di-Salt Hydrate, Form 1, dihydrochloride monohydrate]", "< 10000 µg/mL"]
]}

Turning now to a further compound:
# compound CN1CCC2(CC1)NCC(=O)N2Cc1ccccc1.Cl [HCl mono-salt] ; its solubility = < 10000 µg/mL

====

# assay.remarks: solvent solubility screen
# details: toluene, 40 °C, organic solvent or mixture
Where a name gives a salt, the structure may show the parent alone.
measured.parameter: solubility

{"columns": ["molecule", "solubility"],
 "data": [
  ["CN1CCC2(CC1)NCC(=O)N2Cc1ccccc1.Cl [HCl mono-salt]", "< 10000 µg/mL"]
]}

Moving on to another molecule below.
The molecule CN1CCC2(CC1)NCC(=O)N2Cc1ccccc1 [HCl Di-Salt Hydrate, Form 1, dihydrochloride monohydrate] showed solubility equal to < 10000 µg/mL

====

Reported solubility values follow for various compounds
# assay.remarks: solvent solubility screen
# details: heptane, 40 °C, organic solvent or mixture
Where a name gives a salt, the structure may show the parent alone.

{"columns": ["compound", "solubility"],
 "data": [
  ["CN1CCC2(CC1)NCC(=O)N2Cc1ccccc1 [HCl Di-Salt Hydrate, Form 1, dihydrochloride monohydrate]", "< 10000 µg/mL"]
]}

// switching to the query compound
Form: compound = CN1CCC2(CC1)NCC(=O)N2Cc1ccccc1.Cl [HCl mono-salt] ; solubility = < 10000 µg/mL

====

# assay.remarks: solvent solubility screen
# details: isopropyl acetate, 40 °C, organic solvent or mixture
Structures can show the parent of a compound that is named as a salt.
The following molecules are shown together with reported solubility values.

{"columns": ["molecule", "measured.value"],
 "data": [
  ["CN1CCC2(CC1)NCC(=O)N2Cc1ccccc1 [HCl Di-Salt Hydrate, Form 1, dihydrochloride monohydrate]", "< 10000 µg/mL"]
]}

Now let's try a different one.
Value of measured solubility for the entry CN1CCC2(CC1)NCC(=O)N2Cc1ccccc1.Cl [HCl mono-salt] : < 10000 µg/mL

====

# assay.remarks: solvent solubility screen
# details: tetrahydrofuran, 40 °C, organic solvent or mixture
Counter-ions that a name gives are not always drawn.
Entries and their measured solubility follow.

{"columns": ["compound", "measured.value"],
 "data": [
  ["CN1CCC2(CC1)NCC(=O)N2Cc1ccccc1.Cl [HCl mono-salt]", "< 10000 µg/mL"]
]}

From here, focus on the item given below.
Noted for CN1CCC2(CC1)NCC(=O)N2Cc1ccccc1 [HCl Di-Salt Hydrate, Form 1, dihydrochloride monohydrate] : its solubility reads < 10000 µg/mL

FYI, the data here is from patent US11370791B2.
